target: Voltage-dependent T-type calcium channel subunit alpha-1H (Homo sapiens);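 note: channel activity triggered by adding a high calcium stimulation buffer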
Sequence (O95180 whole entry): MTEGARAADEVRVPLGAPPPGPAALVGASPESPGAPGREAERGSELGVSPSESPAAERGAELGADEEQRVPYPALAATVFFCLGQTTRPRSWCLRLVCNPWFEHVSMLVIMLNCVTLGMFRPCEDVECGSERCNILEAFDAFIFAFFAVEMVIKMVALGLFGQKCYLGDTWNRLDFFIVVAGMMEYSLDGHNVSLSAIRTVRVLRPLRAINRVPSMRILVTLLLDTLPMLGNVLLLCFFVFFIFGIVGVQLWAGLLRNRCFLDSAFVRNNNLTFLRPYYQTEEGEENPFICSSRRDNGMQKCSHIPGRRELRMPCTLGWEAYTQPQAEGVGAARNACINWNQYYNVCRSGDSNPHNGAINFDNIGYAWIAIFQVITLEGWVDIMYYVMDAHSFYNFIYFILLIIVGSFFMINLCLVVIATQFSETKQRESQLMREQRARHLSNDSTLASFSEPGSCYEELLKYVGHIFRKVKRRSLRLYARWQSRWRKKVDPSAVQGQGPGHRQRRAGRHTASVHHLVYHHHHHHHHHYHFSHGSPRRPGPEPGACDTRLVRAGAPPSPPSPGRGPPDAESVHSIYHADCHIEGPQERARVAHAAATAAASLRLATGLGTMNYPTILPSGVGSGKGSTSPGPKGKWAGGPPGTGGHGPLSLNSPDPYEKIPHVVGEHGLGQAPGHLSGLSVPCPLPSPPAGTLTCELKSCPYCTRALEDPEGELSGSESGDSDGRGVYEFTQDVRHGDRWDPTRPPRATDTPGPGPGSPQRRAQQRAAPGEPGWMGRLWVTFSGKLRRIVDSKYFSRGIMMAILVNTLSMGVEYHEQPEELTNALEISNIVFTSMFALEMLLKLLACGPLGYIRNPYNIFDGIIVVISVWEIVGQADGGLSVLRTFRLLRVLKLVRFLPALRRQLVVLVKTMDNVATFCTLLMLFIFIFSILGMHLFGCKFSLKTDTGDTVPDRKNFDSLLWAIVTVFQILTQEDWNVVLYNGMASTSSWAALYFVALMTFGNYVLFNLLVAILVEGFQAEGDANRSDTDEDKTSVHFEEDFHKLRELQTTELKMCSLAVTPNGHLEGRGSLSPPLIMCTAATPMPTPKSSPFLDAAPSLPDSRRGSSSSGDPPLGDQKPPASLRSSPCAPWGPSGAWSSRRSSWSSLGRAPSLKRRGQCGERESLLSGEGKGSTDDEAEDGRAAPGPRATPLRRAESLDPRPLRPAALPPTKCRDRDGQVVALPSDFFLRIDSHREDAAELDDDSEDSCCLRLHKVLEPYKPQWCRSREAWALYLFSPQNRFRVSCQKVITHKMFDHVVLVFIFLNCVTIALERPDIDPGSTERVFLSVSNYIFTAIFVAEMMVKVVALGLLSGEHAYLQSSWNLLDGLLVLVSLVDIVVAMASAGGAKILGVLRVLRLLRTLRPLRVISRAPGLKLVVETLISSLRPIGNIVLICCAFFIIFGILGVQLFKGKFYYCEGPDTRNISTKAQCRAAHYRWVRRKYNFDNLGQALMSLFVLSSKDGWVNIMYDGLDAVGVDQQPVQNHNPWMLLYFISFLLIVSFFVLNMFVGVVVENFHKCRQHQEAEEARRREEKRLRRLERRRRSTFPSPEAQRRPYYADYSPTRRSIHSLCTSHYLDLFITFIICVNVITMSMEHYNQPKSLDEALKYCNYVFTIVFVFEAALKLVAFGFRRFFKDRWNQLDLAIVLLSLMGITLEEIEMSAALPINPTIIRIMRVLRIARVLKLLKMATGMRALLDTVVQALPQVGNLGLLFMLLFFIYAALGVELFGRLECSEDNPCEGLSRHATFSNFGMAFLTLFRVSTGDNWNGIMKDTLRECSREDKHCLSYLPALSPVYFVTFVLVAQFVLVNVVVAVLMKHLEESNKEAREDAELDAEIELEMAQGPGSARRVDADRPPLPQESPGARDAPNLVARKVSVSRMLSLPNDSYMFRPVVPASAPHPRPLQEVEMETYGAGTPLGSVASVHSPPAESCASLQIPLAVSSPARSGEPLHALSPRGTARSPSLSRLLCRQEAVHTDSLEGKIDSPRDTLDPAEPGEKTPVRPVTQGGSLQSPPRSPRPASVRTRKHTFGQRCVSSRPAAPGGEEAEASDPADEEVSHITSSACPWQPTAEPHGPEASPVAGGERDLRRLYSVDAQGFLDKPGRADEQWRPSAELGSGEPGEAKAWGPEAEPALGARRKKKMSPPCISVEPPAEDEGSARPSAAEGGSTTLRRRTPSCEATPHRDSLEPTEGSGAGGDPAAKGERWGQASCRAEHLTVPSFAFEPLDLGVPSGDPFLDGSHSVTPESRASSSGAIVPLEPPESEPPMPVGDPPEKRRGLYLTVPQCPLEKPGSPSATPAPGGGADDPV
Type: functional
The source made the active and inactive calls.
readout kind: EC50

Problem: Find EC50 (Voltage-dependent T-type calcium channel subunit alpha-1H (Homo sapiens)) for the entry O=C(COc1ccc(Cl)cc1Cl)Nc1nc2n(n1)C(c1ccccc1)CC(=O)N2 (centres undefined)
Result: 1.98 µM (active)

Problem: Find EC50 (Voltage-dependent T-type calcium channel subunit alpha-1H (Homo sapiens)) for the entry C=CCn1c(SC(C)C(=O)NCCC2=CCCCC2)nc2ccccc2c1=O (centres undefined)
Result: 3.01 µM (active)

Problem: Find EC50 (Voltage-dependent T-type calcium channel subunit alpha-1H (Homo sapiens)) for the entry CC(C)(C)n1nnnc1C(c1cccs1)N1CCCc2ccccc21 (centres undefined)
Result: 8.88 µM (active)

Problem: Find EC50 (Voltage-dependent T-type calcium channel subunit alpha-1H (Homo sapiens)) for the entry "COc1cc(Cl)c(C)cc1NC(=O)CSc1nnc(-c2ccccn2)n1Cc1ccco1"
Result: 7.53 µM (active)

Numbers sourced from ChEMBL document CHEMBL1201862.
